Tested on: Salmonella enterica typhimurium
experimentalProtocol: growth AUC normalised to DMSO control (fraction of control); higher = less growth inhibition, active = hit call of the paper
measurementContext: 20 µM
Structures can show the parent of a compound that is named as a salt.
valueKind: growth AUC normalised to DMSO control

molecule	numericResult
C#C[C@]1(O)CC[C@H]2[C@@H]3CCC4=CC(=O)CC[C@@H]4[C@H]3CC[C@@]21C	1.01
CC(=O)c1ccc(S(=O)(=O)NC(=O)NC2CCCCC2)cc1 [Acetohexamide]	1
CCN(CC)Cc1cc(Nc2ccnc3cc(Cl)ccc23)ccc1O [Amodiaquine dihydrochloride dihydrate]	0.974
COc1cccc2c1C(=O)c1c(O)c3c(c(O)c1C2=O)C[C@@](O)(C(C)=O)C[C@@H]3O[C@H]1C[C@H](N)[C@H](O)[C@H](C)O1 [Daunorubicin hydrochloride]	0.998
COc1ccc2c(c1)C(=O)N(CCc1ccc(S(=O)(=O)NC(=O)NC3CCCCC3)cc1)C(=O)C2(C)C	1
Cc1cn[nH]c1 [Fomepizole]	0.996
CCCOc1cc(N)ccc1C(=O)OCCN(CC)CC [Propoxycaine hydrochloride]	1.02
N=C(N)NC(=O)c1nc(Cl)c(N)nc1N [Amiloride hydrochloride dihydrate]	1.01
